test system: ACHN; experiment: NCI tumour cell line growth inhibition, 48 h
Calls of active or inactive are those of the source. No stated cut-off is given here; in the data, active = GI50 up to about 1.1 µM and inactive = higher.

- Molecule: "COC(=O)CCc1ccc2c(c1)CC1(C2)Cc2ccc3c(c2C1)CCC3 (stereo not given)"
  Measured target: "ACHN"
  GI50: "> 100 µM (inactive)"
- Molecule: "CCOC(=O)P(=O)(O)c1ccc(N(C)Cc2ccccc2)cc1"
  Measured target: "ACHN"
  GI50: "> 100 µM (inactive)"
- Molecule: "CC(C)=CCN(N=O)c1ncnc2[nH]cnc12"
  Measured target: "ACHN"
  GI50: "> 100 µM (inactive)"
- Molecule: "Cc1cc(C)nc(NS(=O)(=O)c2ccc(Nc3c4ccccc4nc4c(C(=O)Nc5ccc(S(=O)(=O)N=C(N)N)cc5)cccc34)cc2)n1"
  Measured target: "ACHN"
  GI50: "> 100 µM (inactive)"
- Molecule: "CCOC(=O)CSc1nc(-c2ccc(Cl)cc2)c(C#N)c(=O)[nH]1"
  Measured target: "ACHN"
  GI50: "> 100 µM (inactive)"
- Molecule: "CCCC1N2CCCCC2[C@@H]2c3[nH]c4ccccc4c3CCN12 (stereo not given in full)"
  Measured target: "ACHN"
  GI50: "> 100 µM (inactive)"
- Molecule: "O=[N+]([O-])c1cccc(C2SCc3nc4ccccc4n32)c1 (stereo not given)"
  Measured target: "ACHN"
  GI50: "62.7 µM (inactive)"
- Molecule: "COc1ccc2c3c([nH]c2c1[N+](=O)[O-])C(C)=NCC3"
  Measured target: "ACHN"
  GI50: "52.6 µM (inactive)"
- Molecule: "O=C1OC(CCCN2CCCCC2)(c2ccccc2)CC12CCCC2 (stereo not given)"
  Measured target: "ACHN"
  GI50: "> 100 µM (inactive)"
- Molecule: "Cc1c2cc[n+](CCN3CCCCC3)cc2c(C)c2c1[nH]c1ccc(O)cc12"
  Measured target: "ACHN"
  GI50: "5.92 µM (inactive)"

Entry source: ChEMBL document CHEMBL1201862
